# experimental target: human V1a receptor (Homo sapiens)
# run description: Cellular in vitro assay for vasopressin receptor activity, V1a receptor cell line (aequorin luminescence)
# reported conditions: CHO cell line transfected with human V1a receptor; [Arg8]-vasopressin at EC50 concentration; read-out: IC50 hV1a
Recorded IC50, one value per entry.
Just so you know, I need the unit written after the number.

In the examples that follow, each entry is paired with its recorded IC50.
{"molecule": "O=C(NCC(F)(F)F)c1nc(Cn2nc(-c3ccc(Cl)cc3)n(C[C@H](O)C(F)(F)F)c2=O)nn1-c1ncccc1Br", "experimental target": "human V1a receptor (Homo sapiens)", "measured": "1.23 nM"}
{"molecule": "CC1(O)CCN(C(=O)c2nc(Cn3nc(-c4ccc(Cl)cc4)n(C[C@H](O)C(F)(F)F)c3=O)nn2-c2cnccc2Cl)C1 (stereo partly drawn)", "experimental target": "human V1a receptor (Homo sapiens)", "measured": "2.45 nM"}
{"molecule": "CC(C)(C)NC(=O)c1nc(Cn2nc(-c3ccc(Cl)cc3)n(C[C@H](O)C(F)(F)F)c2=O)nn1-c1ccccc1Cl", "experimental target": "human V1a receptor (Homo sapiens)", "measured": "2.95 nM"}
{"molecule": "CC1(O)CCN(C(=O)c2nc(Cn3nc(-c4ccc(Cl)cc4)n(C[C@H](O)C(F)(F)F)c3=O)nn2CCC(F)(F)F)C1 (single isomer, unassigned) [Example 24]", "experimental target": "human V1a receptor (Homo sapiens)", "measured": "185 nM"}
{"molecule": "COCCNC(=O)c1nc(Cn2nc(-c3ccc(Cl)cc3)n(C[C@H](O)C(F)(F)F)c2=O)nn1-c1cccc(F)c1", "experimental target": "human V1a receptor (Homo sapiens)", "measured": "38.6 nM"}

Query molecule follows.
Field IC50 (entry O=C(NCC(F)(F)F)c1nc(Cn2nc(-c3ccc(Cl)cc3)n(C[C@H](O)C(F)(F)F)c2=O)nn1-c1cccc(F)c1 ) reads 9.66 nM

###

# experimental target: human V1a receptor (Homo sapiens, UniProt P37288)
# Sequence (P37288 whole entry): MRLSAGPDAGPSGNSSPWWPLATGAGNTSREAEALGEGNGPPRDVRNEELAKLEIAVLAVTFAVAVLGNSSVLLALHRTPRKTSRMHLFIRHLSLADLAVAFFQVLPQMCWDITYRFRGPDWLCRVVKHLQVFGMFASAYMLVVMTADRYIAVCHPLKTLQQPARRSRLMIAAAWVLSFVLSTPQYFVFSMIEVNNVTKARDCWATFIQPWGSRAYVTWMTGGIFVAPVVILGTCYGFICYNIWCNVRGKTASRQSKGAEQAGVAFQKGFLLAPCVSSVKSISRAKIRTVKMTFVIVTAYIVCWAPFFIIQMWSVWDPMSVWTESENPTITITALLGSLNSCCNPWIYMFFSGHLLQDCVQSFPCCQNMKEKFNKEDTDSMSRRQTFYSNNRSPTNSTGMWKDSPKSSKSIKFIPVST
# run description: Cellular in vitro assay for vasopressin receptor activity, V1a receptor cell line (aequorin luminescence)
# reported conditions: CHO cell line transfected with human V1a receptor; [Arg8]-vasopressin at EC50 concentration; read-out: IC50 hV1a
# Experimental: B-1. Cellular In Vitro Assay for Determining Vasopressin Receptor Activity The identification of agonists and antagonists of the V1a and V2 vasopressin receptors from humans, rats and dogs as well as the quantification of the activity of the compounds of the invention is carried out using recombinant cell lines. […] The bioluminescence of the cell lines is detected using a suitable luminometer [Milligan G, Marshall F, Rees S, Trends in Pharmacological Sciences 17, 235-237 (1996)]. […]
recorded metric: pIC50
Reminder that pIC50 is minus the log10 of a molar concentration.

{"molecule": "CC1(O)CCN(C(=O)c2nc(Cn3nc(-c4ccc(Cl)cc4)n(C[C@H](O)C(F)(F)F)c3=O)nn2-c2ncccc2C(F)(F)F)C1 (stereo partly drawn)", "measured": 8.56}
{"molecule": "CN(C)C(=O)c1nc(Cn2nc(-c3ccc(Cl)cc3)n(C[C@H](O)C(F)(F)F)c2=O)nn1-c1cccc(Cl)c1", "measured": 8.31}

Query molecule follows.
Field pIC50 (entry CC(C)(C)NC(=O)c1nc(Cn2nc(-c3ccc(Cl)cc3)n(C[C@H](O)C(F)(F)F)c2=O)nn1-c1ncccc1Cl ) reads 8.38
